# maps each entry to its MIC
# Test system: A. baumannii CDC-0033
# test description: microbe, parasite or virus in culture
# Assay type: cell-based
# condition label: Acinetobacter baumannii, CDC0033, read-out: MIC, A. baumannii CDC-0033
measure: MIC

{"columns": ["compound", "system under test", "measure", "experimental value"],
 "data": [
  ["O=C(NCCN1CCN(C(=O)NC(C(=O)N[C@H]2Cc3ccc(F)c(C(=O)O)c3OB2O)c2cc(F)c(O)c(O)c2Cl)C(=O)C1=O)c1ccncc1 (some centres unmarked) [Example 216]", "A. baumannii CDC-0033", "MIC", "8 to 16 µg/mL"],
  ["CN(CCN1CCN(C(=O)N[C@@H](C(=O)N[C@H]2Cc3ccc(F)c(C(=O)O)c3OB2O)c2cc(F)c(O)c(O)c2Cl)C(=O)C1=O)Cc1ccc(C(N)=O)cc1 [Example 226]", "A. baumannii CDC-0033", "MIC", "2 to 4 µg/mL"],
  ["O=C(O)c1c(F)ccc2c1OB(O)[C@@H](NC(=O)C(NC(=O)N1CCN(S(=O)(=O)CCCNC(=O)[C@@H]3CCCN3)C1=O)c1cc(F)c(O)c(O)c1Cl)C2 (some centres unmarked) [Example 275]", "A. baumannii CDC-0033", "MIC", "8 to 16 µg/mL"],
  ["O=C(NCCCN1CCN(C(=O)N[C@H](C(=O)N[C@H]2Cc3ccc(F)c(C(=O)O)c3OB2O)c2cc(F)c(O)c(O)c2Cl)C(=O)C1=O)c1ccc(O)cc1Cl (single isomer, unassigned) [Example 470]", "A. baumannii CDC-0033", "MIC", "8 to 16 µg/mL"],
  ["O=C(O)c1c(F)ccc2c1OB(O)[C@@H](NC(=O)C(NC(=O)N1CCN(C3CCN(S(=O)(=O)Cc4cccc(O)c4)CC3)C(=O)C1=O)c1cc(F)c(O)c(O)c1Cl)C2 (some centres unmarked) [Example 485]", "A. baumannii CDC-0033", "MIC", "< 1 µg/mL"]
]}

###

# Tested on: A. baumannii CDC-0045
# test description: microbe, parasite or virus in culture
# Format: cell-based
# condition label: Acinetobacter baumannii, CDC0045, read-out: MIC, A. baumannii CDC-0045

{"columns": ["compound", "MIC"],
 "data": [
  ["O=C(NCCCN1CCN(C(=O)N[C@@H](C(=O)N[C@H]2Cc3ccc(F)c(C(=O)O)c3OB2O)c2cc(F)c(O)c(O)c2Cl)C(=O)C1=O)c1cc(F)nc(F)c1 (racemic) [Example 401]", "< 1 µg/mL"],
  ["CN(CCN1CCN(C(=O)N[C@@H](C(=O)N[C@H]2Cc3ccc(F)c(C(=O)O)c3OB2O)c2cc(F)c(O)c(O)c2Cl)C(=O)C1=O)Cc1cncc(O)c1 [Example 208]", "< 1 µg/mL"],
  ["O=C(NCCS(=O)(=O)N1CCN(C(=O)N[C@H](C(=O)N[C@H]2Cc3ccc(F)c(C(=O)O)c3OB2O)c2ccc(P(=O)(O)O)cc2)C1=O)c1ccc(O)c(O)c1Cl [Example 167]", "> 128 µg/mL"],
  ["O=C(NCCS(=O)(=O)N1CCN(C(=O)NC(C(=O)N[C@H]2Cc3ccc(F)c(C(=O)O)c3OB2O)c2cc(F)c(O)c(O)c2Cl)C1=O)c1cccnc1 (stereo partly drawn) [Example 262]", "< 1 µg/mL"],
  ["O=C(O)c1c(F)ccc2c1OB(O)[C@@H](NC(=O)[C@H](NC(=O)N1CCN(C3CCN(C(=O)c4cc(O)c(F)c(O)c4F)CC3)C1=O)c1cc(F)c(O)c(O)c1Cl)C2 (single isomer, unassigned) [Example 444]", "< 1 µg/mL"],
  ["O=C(NCCCN1CCN(C(=O)NC(C(=O)N[C@H]2Cc3ccc(F)c(C(=O)O)c3OB2O)c2cc(F)c(O)c(O)c2Cl)C(=O)C1=O)c1nccs1 (stereo partly drawn) [Example 211]", "< 1 µg/mL"],
  ["O=C(NCCCN1CCN(C(=O)NC(C(=O)N[C@H]2Cc3ccc(F)c(C(=O)O)c3OB2O)c2cc(F)c(O)c(O)c2Cl)C(=O)C1=O)c1ccncc1F (stereo partly drawn) [Example 400]", "< 1 µg/mL"],
  ["O=C(O)c1c(F)ccc2c1OB(O)[C@@H](NC(=O)[C@H](NC(=O)N1CCN(C3CCN(C(=O)c4c(F)ccc(O)c4F)CC3)C1=O)c1cc(F)c(O)c(O)c1Cl)C2 (single isomer, unassigned) [Example 439]", "< 1 µg/mL"],
  ["CN(CCCN1CCN(C(=O)NC(C(=O)N[C@H]2Cc3ccc(F)c(C(=O)O)c3OB2O)c2cc(F)c(O)c(O)c2Cl)C(=O)C1=O)C(=O)c1cccc(O)c1 (stereo partly drawn) [Example 310]", "< 1 µg/mL"],
  ["O=C(NCCN1CCN(C(=O)NC(C(=O)N[C@H]2Cc3ccc(F)c(C(=O)O)c3OB2O)c2cc(F)c(O)c(O)c2Cl)C1=O)c1ccc(O)cc1 (stereo partly drawn) [Example 243]", "< 1 µg/mL"],
  ["O=C(O)c1c(F)ccc2c1OB(O)[C@@H](NC(=O)C(NC(=O)N1CCN(C3CCN(C(=O)Nc4cc(O)ccc4Cl)CC3)C(=O)C1=O)c1cc(F)c(O)c(O)c1Cl)C2 (stereo partly drawn) [Example 483]", "< 1 µg/mL"],
  ["O=C(NCCCN1CCN(C(=O)N[C@@H](C(=O)N[C@H]2Cc3ccc(F)c(C(=O)O)c3OB2O)c2cc(F)c(O)c(O)c2Cl)C(=O)C1=O)c1cccc(O)c1Cl [Example 303]", "< 1 µg/mL"],
  ["O=C(NCCS(=O)(=O)N1CCN(C(=O)NC(C(=O)N[C@H]2Cc3ccc(F)c(C(=O)O)c3OB2O)c2cc(F)c(O)c(O)c2Cl)C1=O)Nc1ccc(O)cc1 (stereo partly drawn) [Example 289]", "2 to 4 µg/mL"],
  ["O=C(NCCCN1CCN(C(=O)NC(C(=O)N[C@H]2Cc3ccc(F)c(C(=O)O)c3OB2O)c2cc(F)c(O)c(O)c2Cl)C(=O)C1=O)Nc1ccc(O)cc1 (stereo partly drawn) [Example 227]", "< 1 µg/mL"],
  ["O=C(O)c1c(F)ccc2c1OB(O)[C@@H](NC(=O)[C@H](NC(=O)N1CCN(C3CCN(C(=O)Nc4cc(O)ccc4Cl)CC3)C1=O)c1cc(F)c(O)c(O)c1Cl)C2 (single isomer, unassigned) [Example 448]", "< 1 µg/mL"],
  ["O=C(N[C@@H](C(=O)N[C@H]1Cc2cccc(C(=O)O)c2OB1O)c1ccc(P(=O)(O)O)cc1)c1ccc(O)c(O)c1Cl [Example 49]", "> 128 µg/mL"],
  ["O=C(NCCCN1CCN(C(=O)NC(C(=O)N[C@H]2Cc3ccc(F)c(C(=O)O)c3OB2O)c2cc(F)c(O)c(O)c2Cl)C(=O)C1=O)c1cc(O)c(F)c(O)c1F (stereo partly drawn) [Example 415]", "2 to 4 µg/mL"],
  ["O=C(NCCN1CCN(C(=O)NC(C(=O)N[C@H]2Cc3ccc(F)c(C(=O)O)c3OB2O)c2cc(F)c(O)c(O)c2Cl)C1=O)c1ccccc1 (stereo partly drawn) [Example 242]", "< 1 µg/mL"],
  ["O=C(NCCCN1CCN(C(=O)NC(C(=O)N[C@H]2Cc3ccc(F)c(C(=O)O)c3OB2O)c2cc(F)c(O)c(O)c2Cl)C1=O)c1ccncc1 (stereo partly drawn) [Example 256]", "< 1 µg/mL"],
  ["O=C(NCCS(=O)(=O)N1CCN(C(=O)NC(C(=O)N[C@H]2Cc3ccc(F)c(C(=O)O)c3OB2O)c2cc(F)c(O)c(O)c2Cl)C1=O)Nc1cccc(O)c1 (stereo partly drawn) [Example 266]", "< 1 µg/mL"],
  ["O=C(O)c1c(F)ccc2c1OB(O)[C@@H](NC(=O)[C@H](NC(=O)N1CCN(CCNC(=O)[C@@H]3CCCN3)C(=O)C1=O)c1cc(F)c(O)c(O)c1Cl)C2 [Example 229]", "< 1 µg/mL"]
]}
